Reference source for all entries: patent US20260306527A1

Target: PRMT3 (Homo sapiens)
Sequence (O60678 211-531): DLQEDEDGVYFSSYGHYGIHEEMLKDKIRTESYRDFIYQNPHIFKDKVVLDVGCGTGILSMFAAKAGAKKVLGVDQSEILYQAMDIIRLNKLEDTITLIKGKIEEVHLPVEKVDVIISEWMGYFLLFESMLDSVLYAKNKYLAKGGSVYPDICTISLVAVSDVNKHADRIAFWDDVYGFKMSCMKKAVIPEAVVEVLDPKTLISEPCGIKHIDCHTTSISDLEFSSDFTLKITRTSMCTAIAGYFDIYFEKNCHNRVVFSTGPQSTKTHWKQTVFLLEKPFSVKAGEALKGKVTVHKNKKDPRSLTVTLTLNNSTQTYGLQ
Assay: SAHH-coupled fluorescence assay, inhibition of PRMT3
Assay type: biochemical
Set-up: PRMT3 (residues 211-531) was cloned into the pET28a-MHL expression vector; tag of the pET28a-MHL vector (not described); made in house; host or cells: Escherichia coli BL21(DE3)
Experimental: A fluorescence-based SAHH-coupled assay was applied to study the inhibition activity of all synthesized compounds on PRMT 1 and 3. The PRMT3 methylation assay was performed under the following conditions in a final well volume of 100 μL: 20 mM Tris (pH=7.5), 0.01% Triton X-100, 5 μM SAHH, 0.25 μM PRMT3, 30 μM AdoMet, and 15 μM ThioGlo4. […] Fluorescence was monitored on a BMG CLARIOstar microplate reader with excitation 380 nm and emission 505 nm. […]
value_kind: inhibition at 10 µM (%)

compound="Nc1ncnc2c1ncn2[C@@H]1O[C@H](CSCCNCc2cccc(-c3cncnc3)c2)[C@@H](O)[C@H]1O [Compound 10g]" value_kind="inhibition at 10 µM" result_unit=% measurement=13
compound=Nc1ncnc2c1ncn2[C@@H]1O[C@H](CSCCNC(=O)NCc2ccc(-c3cccc(O)c3)cc2)[C@@H](O)[C@H]1O value_kind="inhibition at 10 µM" result_unit=% measurement=9

A: Nc1ncnc2c1ncn2[C@@H]1O[C@H](CSCCNC(=O)NCc2ccccc2)[C@@H](O)[C@H]1O
B: Nc1ncnc2c1ncn2[C@@H]1O[C@H](CSCCCNCc2cccc(-c3cccc4cn[nH]c34)c2)[C@@H](O)[C@H]1O [Compound 10t]
Form: Entry with minimum inhibition at 10 µM (choose one): A / B The response must carry the label of the picked entry.
B
